Tested on: LLC-MK2 cells
ASSAY_CONDITIONS: 24 h incubation, peptide 10 µM, resazurin assay
Peptide text beside a SMILES is read from it.
MEASUREMENT_TYPE: Cell viability (%) 10 µM

>>> numeric_readout("CSCC[C@H](NC(=O)[C@@H](NC(=O)[C@@H](NC(=O)[C@H](CCCCN)NC(=O)[C@@H](N)Cc1c[nH]cn1)C(C)C)[C@@H](C)O)C(=O)N[C@H](C(=O)N[C@@H](CS)C(=O)N[C@@H](CO)C(=O)N[C@@H](C)C(=O)N[C@@H](CO)C(=O)O)[C@@H](C)O [Peptide H10S] (H-HKVTMTCSAS-OH)")
96.77
>>> numeric_readout("CSCC[C@H](NC(=O)[C@@H](NC(=O)[C@@H](NC(=O)[C@H](CCCCN)NC(=O)[C@H](C)N)C(C)C)[C@@H](C)O)C(=O)N[C@H](C(=O)N[C@@H](CS)C(=O)N[C@@H](CO)C(=O)N[C@@H](C)C(=O)N[C@@H](CO)C(=O)O)[C@@H](C)O [A10S (KP)] (H-AKVTMTCSAS-OH)")
93.59
>>> numeric_readout("CSCC[C@H](NC(=O)[C@@H](NC(=O)[C@@H](NC(=O)[C@H](CCCCN)NC(=O)[C@@H](N)CC(C)C)C(C)C)[C@@H](C)O)C(=O)N[C@H](C(=O)N[C@@H](CS)C(=O)N[C@@H](CO)C(=O)N[C@@H](C)C(=O)N[C@@H](CO)C(=O)O)[C@@H](C)O [Peptide L10S] (H-LKVTMTCSAS-OH)")
95.70

----------
Test system: LLC-MK2 cells
ASSAY_CONDITIONS: 24 h incubation, peptide 50 µM, resazurin assay
Peptide text beside a SMILES is read from it.
MEASUREMENT_TYPE: Cell viability (%) 50 µM

>>> numeric_readout("CSCC[C@H](NC(=O)[C@@H](NC(=O)[C@@H](NC(=O)[C@@H](N)CCCCN)C(C)C)[C@@H](C)O)C(=O)N[C@H](C(=O)N[C@@H](CS)C(=O)N[C@@H](CO)C(=O)N[C@@H](C)C(=O)N[C@@H](CO)C(=O)O)[C@@H](C)O [Peptide K9S] (H-KVTMTCSAS-OH)")
95.86
>>> numeric_readout("CSCC[C@H](NC(=O)[C@@H](NC(=O)[C@@H](NC(=O)[C@H](CCCCN)NC(=O)[C@@H](N)Cc1c[nH]cn1)C(C)C)[C@@H](C)O)C(=O)N[C@H](C(=O)N[C@@H](CS)C(=O)N[C@@H](CO)C(=O)N[C@@H](C)C(=O)N[C@@H](CO)C(=O)O)[C@@H](C)O [Peptide H10S] (H-HKVTMTCSAS-OH)")
90.99
>>> numeric_readout("CSCC[C@H](NC(=O)[C@@H](NC(=O)[C@@H](NC(=O)[C@H](CCCCN)NC(=O)[C@@H](N)CO)C(C)C)[C@@H](C)O)C(=O)N[C@H](C(=O)N[C@@H](CS)C(=O)N[C@@H](CO)C(=O)N[C@@H](C)C(=O)N[C@@H](CO)C(=O)O)[C@@H](C)O [Peptide S10S] (H-SKVTMTCSAS-OH)")
91.09
>>> numeric_readout("CSCC[C@H](NC(=O)[C@@H](NC(=O)[C@@H](NC(=O)[C@H](CCCCN)NC(=O)[C@@H](N)Cc1ccc(O)cc1)C(C)C)[C@@H](C)O)C(=O)N[C@H](C(=O)N[C@@H](CS)C(=O)N[C@@H](CO)C(=O)N[C@@H](C)C(=O)N[C@@H](CO)C(=O)O)[C@@H](C)O [Peptide Y10S] (H-YKVTMTCSAS-OH)")
97.18
>>> numeric_readout("CSCC[C@H](NC(=O)[C@@H](NC(=O)[C@@H](NC(=O)[C@H](CCCCN)NC(=O)[C@@H]1CCCN1)C(C)C)[C@@H](C)O)C(=O)N[C@H](C(=O)N[C@@H](CS)C(=O)N[C@@H](CO)C(=O)N[C@@H](C)C(=O)N[C@@H](CO)C(=O)O)[C@@H](C)O [Peptide P10S] (H-PKVTMTCSAS-OH)")
89.77
>>> numeric_readout("CSCC[C@H](NC(=O)[C@@H](NC(=O)[C@@H](NC(=O)[C@H](CCCCN)NC(=O)[C@@H](N)CCCCN)C(C)C)[C@@H](C)O)C(=O)N[C@H](C(=O)N[C@@H](CS)C(=O)N[C@@H](CO)C(=O)N[C@@H](C)C(=O)N[C@@H](CO)C(=O)O)[C@@H](C)O [Peptide K10S] (H-KKVTMTCSAS-OH)")
90.95
>>> numeric_readout("CSCC[C@H](NC(=O)[C@@H](NC(=O)[C@@H](NC(=O)[C@H](CCCCN)NC(=O)[C@H](C)N)C(C)C)[C@@H](C)O)C(=O)N[C@H](C(=O)N[C@@H](CS)C(=O)N[C@@H](CO)C(=O)N[C@@H](C)C(=O)N[C@@H](CO)C(=O)O)[C@@H](C)O [A10S (KP)] (H-AKVTMTCSAS-OH)")
89.71
>>> numeric_readout("CSCC[C@H](NC(=O)[C@@H](NC(=O)[C@@H](NC(=O)[C@H](CCCCN)NC(=O)[C@@H](N)CC(C)C)C(C)C)[C@@H](C)O)C(=O)N[C@H](C(=O)N[C@@H](CS)C(=O)N[C@@H](CO)C(=O)N[C@@H](C)C(=O)N[C@@H](CO)C(=O)O)[C@@H](C)O [Peptide L10S] (H-LKVTMTCSAS-OH)")
98.07

The origin of these recorded values is paper PMC7916522.
